experiment: chemical genetic growth profiling, strain panel (AID 1159580);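 note: tested at 20 µM; growth read once vehicle control cultures reached saturation at 30 °C; 1 = growth at the plate median or of vehicle wells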; conditions: S. cerevisiae deletion strains, growth OD, locus YLR058C, strain SHM2, stronger effect = lower value
Hit rate of the full screen: of about 5,500 compounds, about 2,000 (36%) were called active. Another 18% or so got no clear call; they are omitted. The list shows a part of the results.
Hi! Just check whether normalized growth is below 1. Below gives Yes, equal or above gives No.

// known answers, use as guide
COMPOUND	CATEGORY_LABEL
CC12CCC(O)CC1CCC1C2[C@H](O)CC2(C)C(C3=CC(=O)OC3)CCC12O (some centres not stated)	No
CC(=O)Oc1c(Cl)c(C)c2c(c1Cl)OC(=O)c1c(C)c(Cl)c(OC(C)=O)c(Cl)c1O2	Yes
CC1=CC(=O)c2ccccc2C1=O	Yes
C=C(C)C1(O)OC(=O)C=C1OC (configuration not stated)	Yes
COC(=O)c1c(OC)cc2c(c1C)Oc1c(Cl)c(O)c(Cl)c(C)c1C(=O)O2	Yes

Now for a further compound.
Does the reported normalized growth of CC(C)c1ccc2c(c1)CCC1[C@](C)(CN)CCC[C@]21C (some centres not stated) stay below 1? Yes

* * *

experiment: chemical genetic growth profiling, strain panel (AID 1159580);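 note: tested at 20 µM; growth read once vehicle control cultures reached saturation at 30 °C; 1 = growth at the plate median or of vehicle wells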; conditions: S. cerevisiae deletion strains, growth OD, locus YAL021C, strain ccr4, stronger effect = lower value
The campaign covered roughly 5,500 compounds. About 2,000 (36%) were called active. Not shown: some 18% with an inconclusive outcome. This is one part of the list.
Binary call on normalized growth with cut-off 1: strictly below means satisfied, and equality or higher means not satisfied.

COMPOUND	CATEGORY_LABEL
CC(C)CCCC(C)C1CCC2C3=CC[C@H]4C[C@@H](O)CC[C@]4(C)C3CC[C@@]21C (some centres not stated)	satisfied
O=C(CC(=O)c1ccccc1)c1ccccc1	satisfied
CC1(C)CC2C1CC[C@]1(C)CCC3C(C(=O)O)CC(=O)O[C@@]32C1 (some centres not stated)	not satisfied
CC1=CCCC2C1(C)CCC(C)C2(C)CC/C(C)=C/C[n+]1cn(C)c2c(N)ncnc21 (configuration not stated)	satisfied

For CC(=O)O[C@H]1CCC2(C)C3=C(CCC2C1(C)C)[C@]1(C)CCC(C(C)CCC=C(C)C)[C@@]1(C)CC3 (some centres not stated) , is the recorded normalized growth below the cut-off of 1? not satisfied

normalized growth under 1? Item: CC(=O)Oc1ccc(O)cc1 not satisfied

In the record for CC(C)CCCC(C)C1CCC2C3C[C@@H](O)[C@@]4(O)C[C@@H](O)CC[C@]4(C)C3CC[C@]12C (some centres not stated) , is normalized growth less than 1? satisfied

* * *

Property: normalized growth; scope: individual compounds
assay: chemical genetic growth profiling, strain panel (AID 1159580);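 note: tested at 20 µM; growth read once vehicle control cultures reached saturation at 30 °C; 1 = growth at the plate median or of vehicle wells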; conditions: S. cerevisiae deletion strains, growth OD, locus YER110C, stronger effect = lower value
The campaign covered roughly 5,500 compounds. About 2,000 (36%) were called active. Another 18% or so got no clear call; they are omitted. The list shows a part of the results.
Respond numerically, and do not add a unit to the figure.

Consider the reported normalized growth for these compounds:
>>> df
                                   compound    val
0       Oc1c(Cl)cc(Cl)cc1Sc1cc(Cl)cc(Cl)c1O  0.964
1  Cc1c(C)c2c(c(C)c1O)CCC(C)(CCCC(C)CCCC(C)CCCC(C)C)O2 (stereo not given)      1
2   CC(C)CC1NC(=O)CNC1=O (stereo not given)  0.976
3  CC(C)=CCCC(C)[C@@H]1CC[C@]2(C)C3=C(CC[C@@]12C)C1(C)CC[C@H](O)C(C)(C)C1CC3 (stereo not given in full)   1.05
4                                   N=C(N)N  0.976

GET /values?readout=normalized growth&item= CC(C)=CCCC(C)C1CC[C@@]2(C)C3=C(CC[C@]12C)C1(C)CC[C@H](O)C(C)(C)C1CC3 (stereo not given in full) 1.01

What normalized growth value was documented for this compound, O=C1NC(O)=NC1(c1ccccc1)c1ccccc1 ? 1.01

normalized growth for C/C1=C\CC(C)(C)/C=C/CC2(C)OC2CC1 (stereo not given) ? 1.02

For the compound NCCCCCCNS(=O)(=O)c1cccc2c(Cl)cccc12 , what normalized growth is on record? 0.99

Please report the recorded normalized growth for O=C(O)C1=CCCNC1 . 0.965
